FYI, the data here is from patent US20120184493A1.

Molecular target: UniProt:Q9Y5Y4
Sequence (Q9Y5Y4 whole entry): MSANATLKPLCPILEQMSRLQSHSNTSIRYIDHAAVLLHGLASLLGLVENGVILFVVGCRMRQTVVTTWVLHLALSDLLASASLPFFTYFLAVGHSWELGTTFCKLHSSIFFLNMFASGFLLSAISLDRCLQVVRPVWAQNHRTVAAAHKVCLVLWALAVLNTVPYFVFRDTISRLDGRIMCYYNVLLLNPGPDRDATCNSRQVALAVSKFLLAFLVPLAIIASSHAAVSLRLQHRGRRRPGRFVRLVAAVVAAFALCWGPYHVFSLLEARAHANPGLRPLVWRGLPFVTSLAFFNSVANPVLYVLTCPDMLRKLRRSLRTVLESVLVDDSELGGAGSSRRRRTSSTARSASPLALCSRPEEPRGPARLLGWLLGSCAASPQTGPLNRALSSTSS
Assay: DP2/CRTH2 radioligand binding assay using [3H]PGD2
Conditions: membranes of HEK293 cells expressing recombinant human DP2, 1 nM [3H]PGD2; read-out: hDP2
pIC50: −log10 of the molar value.
Attribute Measured: pIC50

Examples with their reported pIC50 follow.
CN(C1CCc2c(c3ncccc3n2CC(=O)O)C1)S(=O)(=O)c1ccc(F)cc1 (stereo not drawn) ... > 6.52
CCN(Cc1cc(C(F)(F)F)ccc1-c1cncc(CC(=O)O)c1)C(=O)OCc1ccccc1 ... > 6.52

Now, please, on to the next compound.
# input Input `COc1ccc(CC(=O)O)cc1Oc1ccc(NC(=O)C(C)(C)C)cc1CSC(C)(C)C` , output reported pIC50.
# output > 6.52
